// data source = patent US20090163549A1

molecular target: human TRPV1 receptors (Homo sapiens, UniProt Q8NER1); assay: Inhibition of capsaicin-stimulated Ca2+ influx (Fluo-3, FDSS-3000) in CHO-K1 cells stably expressing human TRPV1 receptors; conditions: CHO-K1 cells transfected with human TRPV1; capsaicin stimulation; Fluo-3 fluorescence
Sequence (Q8NER1 whole entry): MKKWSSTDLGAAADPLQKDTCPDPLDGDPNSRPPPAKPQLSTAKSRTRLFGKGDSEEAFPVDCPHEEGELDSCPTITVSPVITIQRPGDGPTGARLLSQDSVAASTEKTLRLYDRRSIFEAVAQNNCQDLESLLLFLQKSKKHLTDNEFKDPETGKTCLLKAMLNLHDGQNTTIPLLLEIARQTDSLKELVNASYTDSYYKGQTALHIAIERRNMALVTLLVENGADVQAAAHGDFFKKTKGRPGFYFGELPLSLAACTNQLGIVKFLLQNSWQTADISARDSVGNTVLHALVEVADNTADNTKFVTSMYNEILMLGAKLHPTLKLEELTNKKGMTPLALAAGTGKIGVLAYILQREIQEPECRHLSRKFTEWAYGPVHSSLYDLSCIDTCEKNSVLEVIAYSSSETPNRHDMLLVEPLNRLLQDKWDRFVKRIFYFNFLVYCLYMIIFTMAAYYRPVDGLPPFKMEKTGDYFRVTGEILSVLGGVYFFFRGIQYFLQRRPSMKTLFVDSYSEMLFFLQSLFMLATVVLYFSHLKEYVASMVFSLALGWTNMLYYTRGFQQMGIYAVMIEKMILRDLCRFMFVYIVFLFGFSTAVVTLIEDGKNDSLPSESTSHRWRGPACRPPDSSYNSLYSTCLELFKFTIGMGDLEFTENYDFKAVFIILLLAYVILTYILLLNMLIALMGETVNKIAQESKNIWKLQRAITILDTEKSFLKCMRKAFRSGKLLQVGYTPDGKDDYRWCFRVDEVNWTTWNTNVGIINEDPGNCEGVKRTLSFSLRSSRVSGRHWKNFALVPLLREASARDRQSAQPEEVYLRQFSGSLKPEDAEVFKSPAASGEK
quantity: IC50 (nM)

Reference set, count: 6
{"compound": "CC(C)(C)c1ccc(NC(=O)c2ccc(C3=NCCS3)cc2)cc1", "IC50 / nM": 6}
{"compound": "CC(C)(C)c1ccc(NC(=O)c2ccc(C3OCCCO3)cc2)cc1", "IC50 / nM": 176}
{"compound": "CON=C(C)c1ccc(C(=O)Nc2ccc(C(C)(C)C)cc2)cc1", "IC50 / nM": 163}
{"compound": "CC(C)(C)c1ccc(NC(=O)c2ccc(C3(C)OCCO3)cc2)cc1", "IC50 / nM": 230}
{"compound": "CC(C)(C)c1ccc(NC(=O)c2ccc(C3NCCS3)cc2)cc1 (centres unmarked)", "IC50 / nM": 210}
{"compound": "CC(C)(C)c1ccc(NC(=O)c2ccc(C3(C)NCCO3)cc2)cc1 (centres unmarked)", "IC50 / nM": 250}

a: CC(C)(C)c1ccc(NC(=O)c2ccc(C3(C)OCCCO3)cc2)cc1
b: CC(C)(C)c1ccc(NC(=O)c2ccc(C3(C)NCCS3)cc2)cc1 (centres unmarked)
INPUT: Select one: a or b . Criterion: greater recorded IC50. Mark your selection by writing its label.
OUTPUT: a
(a: 297 nM, b: 190 nM)

====

Below, each of the compounds is paired with its reported melting point value.

Some entries whose results are on file:
{"compound": "CC(C)(C)c1ccc(NC(=O)c2ccc(C3OCCCO3)cc2)cc1", "quantity": "melting point", "test.result": "165 to 166 °C"}
{"compound": "CC(C)(C)c1ccc(NC(=O)c2ccc(C3NCCS3)cc2)cc1 (stereo not drawn)", "quantity": "melting point", "test.result": "119 to 120 °C"}
{"compound": "CC(C)(C)c1ccc(NC(=O)c2ccc(C3(C)OCCCO3)cc2)cc1", "quantity": "melting point", "test.result": "148 to 149 °C"}
{"compound": "CC(C)(C)c1ccc(NC(=O)c2ccc(C3(C)NCCO3)cc2)cc1 (stereo not drawn)", "quantity": "melting point", "test.result": "138 to 139 °C"}
{"compound": "CC(C)(C)c1ccc(NC(=O)c2ccc(C3(C)OCCO3)cc2)cc1", "quantity": "melting point", "test.result": "180 to 189 °C"}

INPUT: State its melting point for this compound: CC(C)(C)c1ccc(NC(=O)c2ccc(C3(C)NCCS3)cc2)cc1 (stereo not drawn)
OUTPUT: 152 to 153 °C

INPUT: Please report the measured melting point for CC(C)(C)c1ccc(NC(=O)c2ccc(C3=NCCS3)cc2)cc1
OUTPUT: 176 to 177 °C

INPUT: Fill in reported melting point for this entry: CC(C)(C)c1ccc(NC(=O)c2ccc(C3NOC(=O)N3)cc2)cc1 (stereo not drawn)
OUTPUT: > 300 °C

INPUT: Please give measured melting point of the following entry: CON=C(C)c1ccc(C(=O)Nc2ccc(C(C)(C)C)cc2)cc1
OUTPUT: 154 to 155 °C
